protocol.details: chemical genetic growth profiling, strain panel (AID 1159580);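 further: tested at 20 µM; growth read once vehicle control cultures reached saturation at 30 °C; 1 = growth at the plate median or of vehicle wells; lower values mean less growth of the strain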
applied.conditions: S. cerevisiae deletion strains, growth OD, locus YMR219W, strain ESC1, active compounds read low
Out of some 5,500 compounds screened, about 2,000 (36%) were called active. About 18% were inconclusive and are not listed. This is one part of the list.
Readings of normalized growth for the listed molecules
measurement.kind: normalized growth

compound_smiles=O=C(O)c1oc(C(=O)O)c(OCc2ccccc2)c1OCc1ccccc1 readout_value=0.997
compound_smiles=CCOC(=O)/C(C#N)=C/N=C(N/N=C\c1c(Cl)cccc1Cl)SC readout_value=1.01
compound_smiles=O=[N+]([O-])c1ccc(Oc2c(Cl)cccc2Cl)c(Cl)c1Oc1c(Cl)cccc1Cl readout_value=1
compound_smiles=O=C1c2ccccc2C(=O)N1CN1CCC(O)(c2ccc(Cl)cc2)CC1 readout_value=0.993

====

protocol.details: chemical genetic growth profiling, strain panel (AID 1159580);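 further: tested at 20 µM; growth read once vehicle control cultures reached saturation at 30 °C; 1 = growth at the plate median or of vehicle wells; lower values mean less growth of the strain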
applied.conditions: S. cerevisiae deletion strains, growth OD, locus YGL086W, strain mad1, active compounds read low
About 2,000 (36%) of roughly 5,500 compounds were called active. Another 18% or so got no clear call; they are omitted. The list shows a part of the results.
Measured normalized growth, listed per entry.
measurement.kind: normalized growth

molecule=CCOC(=O)C1=C(O)C(=O)N(Cc2ccccc2)C1 readout_value=1.02
molecule="CC1=CC(=O)C2C(C)(C)CCC[C@]2(C)[C@@]1(O)CCc1ccoc1 (stereo not given in full)" readout_value=0.995
molecule=CO[C@@H]1[C@@H](OC(N)=O)[C@@H](O)[C@H](Oc2ccc3c(O)c(NC(=O)c4ccc(O)c(CC=C(C)C)c4)c(=O)oc3c2C)OC1(C)C readout_value=1.02
molecule="CC(=O)[C@@]1(O)CCC2C3C=C(Cl)C4=CC(=O)[C@@H]5CC5[C@]4(C)C3CC[C@@]21C (stereo not given in full)" readout_value=1.01
molecule="C[C@@H]1CC[C@@]23CCC4(C)[C@@](C=CC5[C@@]6(C)CC[C@H](O)C(C)(C)C6CC[C@]54C)(OC2=O)C3[C@H]1C (stereo not given in full)" readout_value=1.02
molecule=C[C@]12CCC(=O)C=C1CCc1ccc(O)cc12 readout_value=0.982
molecule="NS(=O)(=O)c1cc2c(cc1C(F)(F)F)NC(Cc1ccccc1)NS2(=O)=O (stereo not given)" readout_value=0.99
molecule=N#Cc1c(Cl)cccc1Cl readout_value=1.01
molecule=CCn1nc(C(=O)O)c(=O)c2cc3c(cc21)OCO3 readout_value=1
molecule=CC1(C)[C@@H]2CC[C@@]1(C)C(=O)C2 readout_value=0.995
molecule="CC(C)(C)NCC(O)COc1cccc2c1C[C@H](O)[C@H](O)C2 (stereo not given in full)" readout_value=1.02
molecule="COC(=O)CC1C(C)(C)C(OC(C)=O)[C@@H]2[C@@H](OC(C)=O)[C@]34O[C@@]2(O)[C@]1(C)C3CC[C@]1(C)C4=CC(=O)O[C@H]1c1ccoc1 (stereo not given in full)" readout_value=1.02
molecule="C[C@@H](CO)NC(=O)C1C=C2c3cccc4[nH]cc(c34)C[C@H]2N(C)C1 (stereo not given in full)" readout_value=0.987
molecule=CSc1nc(NC(C)C)nc(NC(C)C)n1 readout_value=1.01
molecule="CO[C@H]1[C@H](O)[C@@H](O[C@H]2CC[C@]3(C=O)C4CC[C@]5(C)[C@@H](C6=CC(=O)OC6)CC[C@]5(O)C4CC[C@@H]3C2)O[C@@H](C)[C@@H]1O (stereo not given in full)" readout_value=0.989
molecule=Nc1ccc(S(=O)(=O)Nc2ncccn2)cc1 readout_value=0.997
molecule="COP(N)(=O)SC (stereo not given)" readout_value=1.01
molecule=CN(C)CC[C@H](c1ccc(Cl)cc1)c1ccccn1 readout_value=1.01
molecule="NCC(O)CC(=O)O (stereo not given)" readout_value=1
molecule=COC(=O)[C@H]1[C@H]2C[C@H]3c4[nH]c5cc(OC)ccc5c4CCN3C[C@H]2C[C@@H](OC(=O)c2cc(OC)c(OC)c(OC)c2)[C@@H]1OC readout_value=0.999
